Biological target: human HSD17β13 (stable HEK293T cell line overexpressing human HSD17β13) (Homo sapiens)
Sequence (Q7Z5P4 20-300): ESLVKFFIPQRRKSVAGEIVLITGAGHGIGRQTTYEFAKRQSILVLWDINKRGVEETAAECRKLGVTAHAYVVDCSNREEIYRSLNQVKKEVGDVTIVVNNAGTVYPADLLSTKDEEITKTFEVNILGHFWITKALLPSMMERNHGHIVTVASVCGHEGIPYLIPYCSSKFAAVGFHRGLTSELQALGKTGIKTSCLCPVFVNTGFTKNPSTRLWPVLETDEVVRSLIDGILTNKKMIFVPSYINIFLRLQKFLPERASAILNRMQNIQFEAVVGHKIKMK
Assay: HSD17β13 inhibitor cell-based screening assay (conversion of estradiol-d2 to estrone-d2 by RF-MS)
Conditions: conversion of estradiol-d2 to estrone-d2 after 24 hours
pIC50: −log10 of the molar value.
Collected pIC50 values appear next to each entry.
property_name: pIC50

# smiles_notation, result
records = [
    ("COc1cc(C2CC2)c(-c2nc3sc4c(O)c(Cl)ccc4c3c(=O)n2Cc2cnco2)cc1Cl", "> 7.00"),
    ("COc1ccc(-c2nc3sc4c(O)c(C)ccc4c3c(=O)n2Cc2cnco2)c(C2CC2)c1", "6.30 to 7.00"),
    ("CS(=O)(=O)c1ccc(-c2nc3sc4c(O)c(Cl)ccc4c3c(=O)n2Cc2cnco2)c(C2CC2)c1", "> 7.00"),
    ("O=c1c2c(nc(-c3ccc(F)cc3C3CC3)n1Cc1ccno1)sc1c(O)c(Cl)ccc12", "> 7.00"),
    ("COc1ccc(-c2nc3sc4c(O)c(Cl)ccc4c3c(=O)n2Cc2cn(C(F)F)nn2)c(C2CC2)c1", "> 7.00"),
    ("N#Cc1ccc(-c2nc3sc4c(O)c(Cl)ccc4c3c(=O)n2Cc2ccc(C(F)(F)F)nc2)c(C2CC2)c1", "> 7.00"),
    ("COc1cc(-c2nc3sc4c(O)c(Cl)ccc4c3c(=O)n2Cc2cnco2)c(C2CC2)cc1Cl", "> 7.00"),
    ("CCCc1ccc2c(sc3nc(-c4ccc(OC)cc4C4CC4)n(Cc4cnco4)c(=O)c32)c1O", "4.00 to 6.00"),
]

---

Collected IC50 values appear next to each entry.
Biological target: Recombinant human 17β-HSD13 (Homo sapiens)
Sequence (Q7Z5P4 20-300): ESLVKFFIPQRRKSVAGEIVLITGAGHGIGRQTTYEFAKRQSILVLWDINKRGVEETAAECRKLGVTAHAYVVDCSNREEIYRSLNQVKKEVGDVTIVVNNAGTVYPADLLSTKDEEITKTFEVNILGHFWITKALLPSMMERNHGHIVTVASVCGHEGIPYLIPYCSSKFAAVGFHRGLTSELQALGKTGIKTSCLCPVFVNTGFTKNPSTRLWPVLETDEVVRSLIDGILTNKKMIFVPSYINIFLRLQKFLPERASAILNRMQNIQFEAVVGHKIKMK
Experiment: 17β-HSD13 rapid-fire mass spectrometry assay (RF/MS assay)
Details: inhibition of 17β-HSD13, RF/MS assay; HSD17B13 80 nM, LTB4 10 μM, NAD+ 0.5 mM, RT 3 h

# molecule, IC50
rows = [
    ("O=c1c2c(nc(-c3ncc(C(F)(F)F)cc3C3CC3)n1Cc1cnc(C(F)(F)F)nc1)sc1c(O)c(Cl)ccc12 [Example 99]", "< 100 nM"),
    ("O=c1c2c(nc(-c3cc(Cl)c(Cl)cc3C3CC3)n1Cc1cnco1)sc1c(O)c(Cl)ccc12 [Example 77]", "< 100 nM"),
    ("COc1ccc(-c2nc3sc4c(O)c(Cl)ccc4c3c(=O)n2Cc2cnco2)c(C2CC2)c1 [Example 26]", "< 100 nM"),
    ("COc1ccc(-c2nc3sc4c(O)c(Cl)ccc4c3c(=O)n2Cc2cnco2)c(C2CCC2)c1 [Example 117]", "< 100 nM"),
    ("O=c1c2c(nc(-c3ccc(C(F)(F)F)cc3C3CC3)n1Cc1cnco1)sc1c(O)c(Cl)ccc12 [Example 135]", "< 100 nM"),
    ("COc1ccc(-c2nc3sc4c(OCCO)cccc4c3c(=O)n2Cc2cnco2)c(C2CC2)c1 [Example 20]", "> 10000 nM"),
    ("COc1ccc(-c2nc3sc4c(C(F)F)cccc4c3c(=O)n2Cc2cnco2)c(C2CC2)c1 [Example 16]", "> 10000 nM"),
]

---

Target: human HSD17β13 (stable HEK293T cell line overexpressing human HSD17β13) (Homo sapiens, UniProt Q7Z5P4)
Assay: HSD17β13 inhibitor cell-based screening assay (conversion of estradiol-d2 to estrone-d2 by RF-MS)
Conditions: conversion of estradiol-d2 to estrone-d2 after 24 hours
pIC50: −log10 of the molar value.
Collected pIC50 values appear next to each entry.
property_name: pIC50

# smiles_notation, result
rows = [
    ("COc1ccc(-c2nc3sc4c(O)c(Cl)ccc4c3c(=O)n2CCCc2cnco2)c(C2CC2)c1", "> 7.00"),
    ("O=c1c2c(nc(-c3cc(F)c(Cl)cc3C3CC3)n1Cc1cnco1)sc1c(O)c(Cl)ccc12", "> 7.00"),
    ("COc1ccc(-c2nc3sc4c(O)c(Cl)cc(F)c4c3c(=O)n2Cc2cnco2)c(C2CC2)c1", "> 7.00"),
    ("Cn1ncc2cc(-c3nc4sc5c(O)c(Cl)ccc5c4c(=O)n3Cc3cnco3)c(C3CC3)cc21", "> 7.00"),
    ("COc1cc(C2CC2)c(-c2nc3sc4c(O)c(Cl)ccc4c3c(=O)n2Cc2cnco2)cc1C1CCCC1", "6.00 to 6.30"),
    ("COc1ccc(-c2nc3sc4c(O)c(Cl)ccc4c3c(=O)n2Cc2cnco2)c(C(C)(C)C)c1", "6.00 to 6.30"),
    ("COc1ccc(-c2nc3sc4c(ccc5[nH]c(=O)oc54)c3c(=O)n2Cc2cnco2)c(C2CC2)c1", "6.00 to 6.30"),
    ("COc1ccc(-c2nc3sc4c(O)c(Cl)ccc4c3c(=O)n2CC(=O)NCCO)c(C2CC2)c1", "6.00 to 6.30"),
    ("O=c1c2c(nc(-c3ncc(F)cc3C3CC3)n1Cc1cnc(C(F)(F)F)nc1)sc1c(O)c(Cl)ccc12", "> 7.00"),
    ("O=c1c2c(nc(-c3ccc(C(F)(F)F)nc3C3CC3)n1Cc1cnc(C(F)(F)F)nc1)sc1c(O)c(Cl)ccc12", "> 7.00"),
    ("COc1ccc(-c2nc3sc4c(F)cccc4c3c(=O)n2Cc2cnco2)c(C2CC2)c1", "4.00 to 6.00"),
    ("O=c1c2c(nc(-c3cc(F)c(F)cc3C3CC3)n1Cc1cccnc1)sc1c(O)c(Cl)ccc12", "> 7.00"),
    ("O=c1c2c(nc(-c3cc(C(F)(F)F)c(Cl)cc3C3CC3)n1Cc1cnco1)sc1c(O)c(Cl)ccc12", "> 7.00"),
    ("O=c1c2c(nc(-c3cc(F)c(C(F)F)cc3C3CC3)n1Cc1cc(C(F)(F)F)no1)sc1c(O)c(Cl)ccc12", "> 7.00"),
    ("COc1cc(C2CC2)c(-c2nc3sc4c(O)c(Cl)ccc4c3c(=O)n2Cc2cnco2)cc1C1CC1", "6.30 to 7.00"),
]

---

Molecular target: Recombinant human 17β-HSD13 (Homo sapiens, UniProt Q7Z5P4)
Experiment: 17β-HSD13 rapid-fire mass spectrometry assay (RF/MS assay)
Conditions: inhibition of 17β-HSD13, RF/MS assay; HSD17B13 80 nM, LTB4 10 μM, NAD+ 0.5 mM, RT 3 h

# smiles_notation, IC50
records = [
    ("COc1ccc(-c2nc3sc4c(O)c(N)ccc4c3c(=O)n2Cc2cnco2)c(C2CC2)c1", "100 to 1000 nM"),
    ("COc1ccc(-c2nc3sc4c(C(=O)O)cccc4c3c(=O)n2Cc2cnco2)c(C2CC2)c1", "100 to 1000 nM"),
    ("Cn1cc(Cn2c(-c3cc(F)c(F)cc3C3CC3)nc3sc4c(O)c(Cl)ccc4c3c2=O)ccc1=O", "< 100 nM"),
    ("O=c1ccc(Cn2c(-c3cc(F)c(F)cc3C3CC3)nc3sc4c(O)c(Cl)ccc4c3c2=O)c[nH]1", "< 100 nM"),
    ("O=c1c2c(nc(-c3ccc(F)cc3C3CC3)n1Cc1cc(C(F)(F)F)no1)sc1c(O)c(Cl)ccc12", "< 100 nM"),
    ("COc1ccc(-c2nc3sc4c(O)c(Cl)ccc4c3c(=O)n2Cc2cc(C)no2)c(C2CC2)c1", "< 100 nM"),
    ("COc1ccc(-c2nc3sc4c(O)c(Cl)ccc4c3c(=O)n2Cc2cnc(Cl)s2)c(C2CC2)c1", "< 100 nM"),
]
